Cited source: ChEMBL document CHEMBL6109036

In this section, each of the compounds is paired with its reported MIC.
System: Helicobacter pylori
Assay: Anti-bacterial activity against Helicobacter pylori Clinical isolate F4 measured after 72 hrs incubation by modified broth dilution method
Assay type: functional
MEASUREMENT LABEL: MIC (µg/mL)

[
  {
    "MOL SMILES": "C=CCc1cccc(OC)c1O",
    "MEASUREMENT LABEL": "MIC",
    "REPORTED RELATION": ">",
    "ENDPOINT RESULT": 128
  },
  {
    "MOL SMILES": "COc1cc(C=O)cc(/N=N/c2cccc(Cl)c2)c1O",
    "MEASUREMENT LABEL": "MIC",
    "REPORTED RELATION": "=",
    "ENDPOINT RESULT": 128
  },
  {
    "MOL SMILES": "COc1ccc(/N=N/c2cc(C)c(O)cc2C(C)C)cc1",
    "MEASUREMENT LABEL": "MIC",
    "REPORTED RELATION": "=",
    "ENDPOINT RESULT": 4
  },
  {
    "MOL SMILES": "C=CCc1cc(/N=N/c2cccc3ccccc23)c(O)c(OC)c1",
    "MEASUREMENT LABEL": "MIC",
    "REPORTED RELATION": ">",
    "ENDPOINT RESULT": 128
  },
  {
    "MOL SMILES": "Cc1ccc(C(C)C)cc1O",
    "MEASUREMENT LABEL": "MIC",
    "REPORTED RELATION": "=",
    "ENDPOINT RESULT": 64
  }
]
